target: hERG ion channel (Homo sapiens, UniProt Q12809); construct: expressed in transfected cells; host or cells: HEK-293; experiment: in vitro; conditions: human
Sequence (Q12809 whole entry): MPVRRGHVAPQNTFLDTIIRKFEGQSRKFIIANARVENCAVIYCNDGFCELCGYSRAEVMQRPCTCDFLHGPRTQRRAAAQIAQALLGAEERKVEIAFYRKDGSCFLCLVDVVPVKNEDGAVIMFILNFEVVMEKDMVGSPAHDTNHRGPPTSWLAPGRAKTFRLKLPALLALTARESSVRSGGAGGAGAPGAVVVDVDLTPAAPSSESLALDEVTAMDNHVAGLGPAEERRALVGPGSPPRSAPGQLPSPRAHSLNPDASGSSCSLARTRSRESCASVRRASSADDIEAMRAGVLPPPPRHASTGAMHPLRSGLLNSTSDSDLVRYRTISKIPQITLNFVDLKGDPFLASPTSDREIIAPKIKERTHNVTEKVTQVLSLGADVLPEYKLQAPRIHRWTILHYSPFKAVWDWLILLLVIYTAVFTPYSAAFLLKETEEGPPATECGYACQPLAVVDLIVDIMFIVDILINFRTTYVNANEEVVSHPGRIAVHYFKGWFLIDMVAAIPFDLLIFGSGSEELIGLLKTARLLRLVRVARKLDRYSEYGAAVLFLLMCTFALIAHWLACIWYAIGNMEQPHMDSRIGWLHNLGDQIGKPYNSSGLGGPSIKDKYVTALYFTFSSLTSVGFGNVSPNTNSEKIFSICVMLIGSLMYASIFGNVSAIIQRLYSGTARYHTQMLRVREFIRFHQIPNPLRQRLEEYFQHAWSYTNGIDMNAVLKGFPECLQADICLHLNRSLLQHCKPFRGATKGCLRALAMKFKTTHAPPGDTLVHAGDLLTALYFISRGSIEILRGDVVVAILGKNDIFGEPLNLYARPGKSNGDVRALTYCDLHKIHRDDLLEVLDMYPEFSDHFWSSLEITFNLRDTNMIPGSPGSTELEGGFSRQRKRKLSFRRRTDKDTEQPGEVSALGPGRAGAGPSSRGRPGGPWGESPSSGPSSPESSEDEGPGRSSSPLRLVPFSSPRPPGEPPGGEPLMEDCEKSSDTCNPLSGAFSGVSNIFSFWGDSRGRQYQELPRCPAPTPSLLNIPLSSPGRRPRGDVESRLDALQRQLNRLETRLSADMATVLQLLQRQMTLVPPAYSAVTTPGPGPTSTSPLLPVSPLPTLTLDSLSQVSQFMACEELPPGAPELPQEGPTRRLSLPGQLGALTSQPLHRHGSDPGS
observation-type: inhibition at 50 µM (%)
Answers are plain numbers, in %.

Query: Output inhibition at 50 µM of CC(C)n1nc(C(=O)NCC2CCN(CCc3ccc(C(=O)O)cc3)CC2)c2ccccc21
Result: 18.8

----------
molecular target: 5-HT2A (Homo sapiens, UniProt P28223)
Sequence (P28223 whole entry): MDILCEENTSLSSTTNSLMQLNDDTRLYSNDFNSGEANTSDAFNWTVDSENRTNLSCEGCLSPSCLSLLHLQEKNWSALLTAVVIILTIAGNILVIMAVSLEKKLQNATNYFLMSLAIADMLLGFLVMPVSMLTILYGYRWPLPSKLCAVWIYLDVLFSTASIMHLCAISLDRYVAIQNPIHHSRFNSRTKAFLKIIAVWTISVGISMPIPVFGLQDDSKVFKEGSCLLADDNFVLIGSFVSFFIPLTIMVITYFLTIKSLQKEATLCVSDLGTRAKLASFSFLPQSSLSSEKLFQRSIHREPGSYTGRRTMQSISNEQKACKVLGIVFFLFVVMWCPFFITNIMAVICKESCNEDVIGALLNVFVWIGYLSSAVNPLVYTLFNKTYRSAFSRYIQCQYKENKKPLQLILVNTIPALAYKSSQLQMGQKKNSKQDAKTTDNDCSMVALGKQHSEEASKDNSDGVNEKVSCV
pIC50: −log10 of the molar value.
observation-type: pIC50

Query: Output pIC50 of CC(C)n1nc(C(=O)NCC2CCN(CCc3ccc(C(=O)O)cc3)CC2)c2ccccc21
Result: < 5.00
